# measurement description: Whole blood stability, human
# Type: in vitro ADME
# condition parameters: 60 min
outcome measure: Whole Blood Stability % Remaining at 37° C. Human (%)

Some solved entries appear below for comparison.
molecule: C#CCOC(=O)c1ccc([C@@H]2c3[nH]c4ccccc4c3C[C@H](C(=O)OC)N2C(=O)CCl)cc1 [BXa]
result value: 46.8
--
molecule: CN(C)C(=O)[C@H]1Cc2c([nH]c3ccccc23)[C@H](c2ccc([Si](C)(C)C)cc2)N1C(=O)CCl [Compound 67]
result value: 37.3
--
molecule: COC(=O)[C@H]1Cc2c([nH]c3ccccc23)[C@H](c2ccc(N[C@]34CC5C[C@H](C[C@H](C5)C3)C4)cc2)N1C(=O)CCl [Compound 29]
result value: 49.2

(1) C=CCOC(=O)c1ccc([C@H]2c3[nH]c4ccccc4c3C[C@H](C(=O)OC)N2C(=O)CCl)cc1 [Compound 74]
(2) CC(=O)Nc1ccc([C@H]2c3[nH]c4ccccc4c3C[C@H](C(=O)N(C)C)N2C(=O)CCl)cc1 [Compound 71]
(3) COC(=O)c1ccc([C@H]2c3[nH]c4cc(Br)ccc4c3C[C@H](C(=O)OC)N2C(=O)CCl)cc1 [Compound 96]
(4) COC(=O)c1ccc([C@H]2c3[nH]c4ccc(OC)cc4c3C[C@H](C)N2C(=O)CCl)cc1 [Compound 113]
Challenge: Sort the molecules on Whole Blood Stability % Remaining at 37° C. Human; start with the lowest figure. Please respond with the labels ordered as the question requires.
Response given: 3, 1, 2, 4
(3: 10.9%, 1: 29.0%, 2: 59.3%, 4: 92.7%)

====

# measurement description: Whole blood stability, human
# Assay type: in vitro ADME
# condition parameters: 60 min
outcome measure: Whole Blood Stability % Remaining at 37° C. Human (%)

Some solved entries appear below for comparison.
compound: COC(=O)[C@H]1Cc2c([nH]c3ccccc23)[C@H](c2ccc(C(=O)NC(C(=O)O)C(C)(C)C)cc2)N1C(=O)CCl (single isomer, unassigned) [Compound 10]
unit label: %
result value: 54.3

compound: CN(C)C(=O)[C@H]1Cc2c([nH]c3ccccc23)[C@H](c2ccc(NC(=O)OC(C)(C)C)cc2)N1C(=O)CCl [Compound 56]
unit label: %
result value: 60.7

compound: CC[C@H]1Cc2c([nH]c3ccccc23)[C@H](c2ccc(N3CCOCC3)cc2)N1C(=O)CCl [Compound 117]
unit label: %
result value: 70.3

compound: COC(=O)[C@H]1Cc2c([nH]c3ccccc23)[C@H](c2ccc(C(=O)OC(C)(C)C)cc2)N1C(=O)CCl [Compound 1]
unit label: %
result value: 43.0

compound: CN(C)C(=O)[C@H]1Cc2c([nH]c3ccccc23)[C@H](c2ccc(C(=O)NC[Si](C)(C)C)cc2)N1C(=O)CCl [Compound 66]
unit label: %
result value: 45.8

(I) COC(=O)c1ccc([C@@H]2c3[nH]c4ccccc4c3C[C@H](C)N2C(=O)CCl)cc1 [Example 77a]
(II) CN(C)C(=O)c1ccc([C@H]2c3[nH]c4ccccc4c3C[C@H](C(N)=O)N2C(=O)CCl)cc1 [Compound 58]
Challenge: Please indicate which item has the smaller measured Whole Blood Stability % Remaining at 37° C. Human: I versus II Give the label of your selection.
Response given: I
(I: 14.8%, II: 40.5%)
